MEASUREMENT_NOTES: qHTS drug screen for cell cycle checkpoint inhibitors in PARPi-resistant BRCA-mutant ovarian cancer cell lines. (AID 1963452)
CONDITION_DESCRIPTION: PEO1/OlaR viability, CellTiter-Glo luminescence, 96 h; measured here: PEO1 parental Z-AUC; stronger effect = lower value
Values of Z-AUC strictly less than 0.7 map to satisfied, and values of at least 0.7 map to not satisfied.

Example cases with answers are listed next.
MOLECULE	ASSIGNED_LABEL
CNC(=O)c1ccc(N2C(=S)N(c3ccc(C#N)c(C(F)(F)F)c3)C(=O)C2(C)C)cc1F	satisfied
CC(C)OC(=O)C1=CN(C(=O)c2ccc(F)c(F)c2)CC(C)(C)c2c1[nH]c1ccccc21	not satisfied
C[C@H](NC(=O)Cc1cc(F)cc(F)c1)C(=O)N[C@@H]1C(=O)N(C)c2ccccc2-c2ccccc21	satisfied
COc1ccc(COc2cc3oc(=O)c4cc(C(C)O)ccc4c3cc2OC)cc1 (centres undefined)	satisfied

Lab log: compare recorded Z-AUC with 0.7; is it strictly lower for `CCCn1c(=O)c2[nH]c(C34CC5CC3C[C@@H](C5)C4)nc2n(CCC)c1=O` ?
satisfied

Lab log: compare recorded Z-AUC with 0.7; is it strictly lower for `Cn1cc(-c2ccc3nnc(C(F)(F)c4ccc5ncccc5c4)n3n2)cn1` ?
satisfied

Lab log: compare recorded Z-AUC with 0.7; is it strictly lower for `Cc1cc2c(C(C)C)c(O)c(O)c(C=O)c2c(O)c1-c1c(C)cc2c(C(C)C)c(O)c(O)c(C=O)c2c1O` ?
satisfied

Lab log: compare recorded Z-AUC with 0.7; is it strictly lower for `Fc1ccc(Cl)cc1-c1nc(Nc2ccncc2)c2nccnc2n1` ?
not satisfied

---

MEASUREMENT_NOTES: qHTS Screen of the MIPE 4.0 Collection Against Ewings Sarcoma (RDES) (AID 1259252); further: nearly all actives have a fitted effect of over 35% in size
CONDITION_DESCRIPTION: RD-ES Ewing sarcoma viability, CellTiter-Glo, 48 h; series mostly up to 45.8 µM
Records with an inconclusive call do not appear. Active and inactive are the calls of the source. Calls come from the whole dose curve; as a rule, active = well fitted inhibition curve with a large enough effect; inconclusive = small, poorly fitted or top-dose-only effect; inactive = no such curve, though single readings can be large or run the other way.
One label from this list, please: active, inactive

COMPOUND	ASSIGNED_LABEL
Nc1nccc(-c2ccc3noc(-c4ccc(Cl)cc4)c3c2)n1	active
CCn1c(-c2nonc2N)nc2cnc(Oc3cccc(NC(=O)c4ccc(OCCN5CCOCC5)cc4)c3)cc21	active
CCc1cncnc1N1CCN(Cc2nc3ccc(C(F)(F)F)cc3[nH]2)CC1	active
Nc1nc2c(ncn2COCCO)c(=O)[nH]1	inactive
Cc1cc([C@@H](C)Nc2ccccc2C(=O)O)c2nc(N3CCOCC3)cc(=O)n2c1	active
O=C(Nc1cccnc1)N1CCC(Cc2cccc(Oc3ccc(C(F)(F)F)cn3)c2)CC1	active

Give the logged outcome of this assay for the following compound: `NNCCc1ccccc1`
active

Give the logged outcome of this assay for the following compound: `CC(=O)Oc1ccccc1C(=O)O`
active

Give the logged outcome of this assay for the following compound: COc1ccc(COc2cc3oc(=O)c4cc(C(C)O)ccc4c3cc2OC)cc1 (centres undefined)
active

Give the logged outcome of this assay for the following compound: `O=NN(CCCl)C(=O)NCCCl`
inactive

Give the logged outcome of this assay for the following compound: `CCOc1ccn(-c2ccc(F)cc2)c(=O)c1C(=O)Nc1ccc(Oc2ccnc(N)c2Cl)c(F)c1`
active

Give the logged outcome of this assay for the following compound: `N#CC[C@H](C1CCCC1)n1cc(-c2ncnc3[nH]ccc23)cn1`
active

Give the logged outcome of this assay for the following compound: `CN1CCN(CCCN2c3ccccc3Sc3ccc(C(F)(F)F)cc32)CC1`
active

Give the logged outcome of this assay for the following compound: `CC[C@H](Nc1ncnc2nc[nH]c12)c1nc2cccc(F)c2c(=O)n1-c1ccccc1`
active

Give the logged outcome of this assay for the following compound: `COc1ccc(CCN2CCN(CCCc3ccccc3)CC2)cc1OC`
inactive

Give the logged outcome of this assay for the following compound: `Cc1ccc(NC(=O)c2cccc(C(C)(C)C#N)c2)cc1Nc1ccc2ncn(C)c(=O)c2c1`
active

Give the logged outcome of this assay for the following compound: `Cc1csc(NC(=O)c2sc3nc4c(c(C(F)(F)F)c3c2N)CCC4)n1`
active

Give the logged outcome of this assay for the following compound: COc1ccc(CC2=NN3C([C@@H](CCc4ccccc4)[C@@H](C)O)=NC(C)C3C(=O)N2)cc1OC (some centres undefined)
inactive

Give the logged outcome of this assay for the following compound: OC(CCN1CCCCC1)(c1ccccc1)C1CC2C=CC1C2 (centres undefined)
inactive
